Values compiled from ChEMBL document CHEMBL4396876.

- method_summary: Plasma concentration in Balb/c mouse at 2 mg/kg, sc administered as single dose using MC/EtOH formulation measured at 1 hr by LC-MS/MS analysis
- Format: ADME, organism-based
metric_name: concentration at 1 h (ng/mL)
Answer with a number only, understood to be in ng/mL.

Need concentration at 1 h of Cc1ccc(CN(Cc2ccc(C(=O)N3CCc4ccc(OS(N)(=O)=O)cc4C3)cc2)Cc2ccco2)s1 , thanks.
681

###

- method_summary: Plasma concentration in Balb/c mouse at 10 mg/kg, sc administered as single dose using MC/EtOH formulation measured at 1 hr by LC-MS/MS analysis
- Format: ADME, organism-based
metric_name: concentration at 1 h (ng/mL)
Please give a number only; it is taken to be in ng/mL.

Entry Cc1ccc(CN(Cc2ccc(C(=O)N3CCc4ccc(OS(N)(=O)=O)cc4C3)cc2)Cc2ccco2)s1 : reported concentration at 1 h = ?
2600

###

- method_summary: AUC (0 to 24 hrs) in Balb/c mouse at 30 mg/kg, sc administered as single dose using MC/EtOH formulation by LC-MS/MS analysis
- Type: ADME, organism-based
- Parameters: dose 30 mg/kg, time < 24 hr, route subcutaneous
- test_settings: in vivo
metric_name: AUC(0-t) at 24 h (ng·h/mL)
Report the figure in ng·h/mL without appending any unit label.

What AUC(0-t) at 24 h value was documented for this compound, Cc1ccc(CN(Cc2ccc(C(=O)N3CCc4ccc(OS(N)(=O)=O)cc4C3)cc2)Cc2ccco2)s1 ?
13500

###

- method_summary: Lipophilicity, log P of the compound
- Format: physicochemical
- test_settings: octanol/water
metric_name: logP
Reply briefly: the number, and no unit.

What value of measured logP is listed for Cc1ccc(CN(Cc2ccc(C(=O)N3CCc4ccc(OS(N)(=O)=O)cc4C3)cc2)Cc2ccco2)s1 ?
4.02

###

- method_summary: Plasma concentration in Balb/c mouse at 30 mg/kg, po administered via gavage as single dose using MC/EtOH formulation measured after 7 hrs by LC-MS/MS analysis
- Format: ADME, organism-based
metric_name: concentration at 7 h (ng/mL)
Use ng/mL as the unit, but write only the number.

Would you mind telling me what concentration at 7 h value was observed for Cc1ccc(CN(Cc2ccc(C(=O)N3CCc4ccc(OS(N)(=O)=O)cc4C3)cc2)Cc2ccco2)s1 ?
75

###

- method_summary: Plasma concentration in Balb/c mouse at 10 mg/kg, sc administered as single dose using MC/EtOH formulation measured after 24 hrs by LC-MS/MS analysis
- Type: ADME, organism-based
metric_name: concentration at 24 h (ng/mL)
Expressed in ng/mL, but write only the number.

Would you kindly share the measured concentration at 24 h for Cc1ccc(CN(Cc2ccc(C(=O)N3CCc4ccc(OS(N)(=O)=O)cc4C3)cc2)Cc2ccco2)s1 ?
2

###

- method_summary: Plasma concentration in Balb/c mouse at 30 mg/kg, po administered via gavage as single dose using MC/EtOH formulation measured after 12 hrs by LC-MS/MS analysis
- Format: ADME, organism-based
metric_name: concentration at 12 h (ng/mL)
Give just the number in ng/mL; leave the unit off.

State the recorded concentration at 12 h for this entry: Cc1ccc(CN(Cc2ccc(C(=O)N3CCc4ccc(OS(N)(=O)=O)cc4C3)cc2)Cc2ccco2)s1
3

###

- method_summary: AUC (0 to 24 hrs) in Balb/c mouse at 30 mg/kg, po administered via gavage as single dose using MC/EtOH formulation by LC-MS/MS analysis
- Assay type: ADME, organism-based
- Design: time < 24 hr, dose 30 mg/kg, route oral
- test_settings: in vivo
metric_name: AUC(0-t) at 24 h (ng·h/mL)
Write the value in ng·h/mL as a bare number.

Recorded AUC(0-t) at 24 h for Cc1ccc(CN(Cc2ccc(C(=O)N3CCc4ccc(OS(N)(=O)=O)cc4C3)cc2)Cc2ccco2)s1 , please?
878
